- studySystem: T1, Ras-GTPase-activating protein-binding protein 1 (G3BP1) NTF2 domain (human, UniProt Q13283 11-133)
- T1 construct: G3BP1, NTF2 domain; limits in Dataset EV2; source: E. coli BL21 DE (Gold), purified
- T1 sequence (Q13283 11-133): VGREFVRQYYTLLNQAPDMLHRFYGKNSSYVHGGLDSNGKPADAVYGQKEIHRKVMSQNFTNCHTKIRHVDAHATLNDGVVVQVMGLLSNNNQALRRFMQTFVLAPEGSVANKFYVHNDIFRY
- assayComment: fluorescence polarisation; displacement: unlabelled peptide titrated onto a complex of FITC-labelled peptide (10 nM) and protein domain (1-2x KD); 50 mM sodium phosphate buffer pH 7.4 (CASK: plus 100 mM NaCl); KD calculated from IC50; technical triplets
- appliedConditions: both partners purified
Each entry below lists one item and its recorded Kd value.

binder: QQSYLDFGIHSGATTT (β-catenin residues 27-42; also called CTNNB1 S33F mutant; source: synthetic peptide, bought: Genecust) [CTNNB1_(27-42) S33F peptide]
outputUnit: µM
Kd: 57
//
binder: EFPVPFFGSNDYLWTH (also called NSD1 L1797P mutant; source: synthetic peptide, bought: Genecust) [NSD1 1793-1808 L1797P peptide]
outputUnit: µM
Kd: 49
